Listing of entries alongside the reported SPOT peptide array binding signal intensity.
target: SpMyo1; assay: SPOT peptide array binding signal intensity (averaged, normalized) (arbitrary units (background-subtracted, floor 0; scale differs between SH3 domains)); higher = stronger binding of the SH3 domain to the peptide
Observation type: SPOT peptide array binding signal intensity

>>> result_value("DGNEEKPLLPTRPNK")
"≤ 0"
>>> result_value("TKPTPPPKPSHLKPK")
"≤ 0"
>>> result_value("LYKRKPILLPDPKPL")
"≤ 0"
